Tested on: SK-MEL-2
METHOD DESCRIPTION: NCI tumour cell line growth inhibition, 48 h
The source made the active and inactive calls. No stated cut-off is given here; in the data, active = GI50 up to about 1.1 µM and inactive = higher.
Hi! Could you answer with just one of these? label 1 for active, label 0 for inactive

For CC1CC[C@@]2(OC1)OC1C[C@H]3[C@@H]4CC[C@H]5CC(OC6OC(CO)C(OC7OC(CO)C(O)C(O)C7O)C(O)C6O)CCC5(C)[C@H]4CCC3(C)C1[C@@H]2C (some centres undefined) , what call appears in the results of this test?
label 0

For C=C[C@]1(C)CC(O)C2C(=C)C(=O)OC2[C@H]1C(=C)C=O (some centres undefined) , what call appears in the results of this test?
label 0

For "CN(C)CCNC(=O)c1cccc2ccc(-c3ccc(Br)cc3)nc12" , what call appears in the results of this test?
label 0

For CN1C(C)(C)CC(=O)C(Br)C1(C)C (centres undefined) , what call appears in the results of this test?
label 0

For "CCOC(=O)c1cnc(-n2[nH]c3c(c2=O)CCCC3)[nH]c1=O" , what call appears in the results of this test?
label 0

For "COc1cc(C)cc(C(=O)OCc2ccccc2)c1C1=C(Cl)C(=O)C(Cl)=CC1=O" , what call appears in the results of this test?
label 0

For CC(=O)/C=C/C1=C(C)CCCC1(C)CC(C)C (centres undefined) , what call appears in the results of this test?
label 0

For "Oc1cc(Cl)cc2cccnc12" , what call appears in the results of this test?
label 0

For "Cc1cc(N(CCC#N)CCC#N)ccc1C(/N=N/c1ccc(Cl)cc1)=N\NC(=O)c1ccccc1" , what call appears in the results of this test?
label 0

For CC(=O)OC(C)(C)CCC(=O)[C@](C)(O)[C@H]1[C@H](O)C[C@@]2(C)[C@@H]3CC=C4C(C)=C(OC5OC(CO)C(O)C(O)C5O)C(=O)C[C@@H]4[C@]3(C)C(=O)C[C@]12C (some centres undefined) , what call appears in the results of this test?
label 0

For "CC1(C)Cc2c(oc3ncnc(N)c23)CS1" , what call appears in the results of this test?
label 0

For "NC(=O)c1ccc[n+](C2=C([N-]S(=O)(=O)c3ccccc3)C(=O)c3ccccc3C2=O)c1" , what call appears in the results of this test?
label 0

For CSc1nc2c(c(=O)[nH]1)N=C(c1ccccc1)CC(c1ccccc1)N2 (centres undefined) , what call appears in the results of this test?
label 0

For COc1ccc(CC(C#N)c2cc(OC)c(OC)c(OC)c2)cc1 (centres undefined) , what call appears in the results of this test?
label 1

For CCOC(=O)C1=C(C)N(Cc2ccccc2)C(=O)C1CC#N (centres undefined) , what call appears in the results of this test?
label 0

For "CSc1c(C(=O)Nc2ccccc2)c(N)nn1-c1ccccc1" , what call appears in the results of this test?
label 0

For "CCOC(=O)c1nc2cc(C(F)(F)F)ccc2nc1Nc1ccc(F)cc1" , what call appears in the results of this test?
label 0

For COC(=O)C(Cc1c[nH]c2ccccc12)NP(=O)(O)OCC1OC(n2cc(F)c(=O)[nH]c2=O)CC1O (centres undefined) , what call appears in the results of this test?
label 0

For CC12C(=O)N(CCN)C(=O)C1C1c3ccccc3C2c2ccccc21 (centres undefined) , what call appears in the results of this test?
label 0

For "COC(=O)NC12CC3CC(CC(F)(C3)C1)C2" , what call appears in the results of this test?
label 0

For "Cc1nc2ccccc2c(=O)n1/N=C/c1ccc(N(C)C)cc1" , what call appears in the results of this test?
label 0

For CCOC(=O)C1C(=O)C=C(c2cc(C)ccc2O)CC1c1cccc(Cl)c1 (centres undefined) , what call appears in the results of this test?
label 0

For CC(=O)OC(C)(C)/C=C/C(=O)[C@](C)(O)[C@H]1[C@H](O)C[C@@]2(C)[C@@H]3CC=C4[C@@H](C=C(O)C(=O)C4(C)C)[C@]3(C)C(=O)C[C@]12C [CUCURBITACIN E] , what call appears in the results of this test?
label 1

For "Cc1ccccc1C(=O)N/N=C/c1ccc(Sc2nccn2C)c([N+](=O)[O-])c1" , what call appears in the results of this test?
label 0

For OC1CCC[C@@H]1Sc1ccccc1 (some centres undefined) , what call appears in the results of this test?
label 0

For "O=C1Nc2ccccc2/C1=N/Nc1ccccc1Cl" , what call appears in the results of this test?
label 0

For "Cc1nc2ccccc2n1Cc1nnc2n1N=C(c1ccccc1)CS2" , what call appears in the results of this test?
label 0

For CCOC(=O)C1=NNC(C(=O)c2ccccc2)C1c1ccccc1 (centres undefined) , what call appears in the results of this test?
label 0

For CC(C)C1=CCC2C(=C1)CCC1C(C)(C(=O)O)CCCC21C (centres undefined) , what call appears in the results of this test?
label 0

For CCCCC[C@H]1CCCCCCCCCC(=O)OC2C(O[C@@H]3OC(C)[C@H](OC(=O)[C@@H](C)CC)C(O[C@@H]4OC(C)[C@H](O)C(O)[C@@H]4O)[C@@H]3OC(=O)[C@H](C)CC)[C@H](OC3C(O)[C@@H](O)C(C)O[C@H]3O1)OC(CO)[C@H]2O (some centres undefined) , what call appears in the results of this test?
label 0

For COCC1OC(OC2C3=C(C(C)C)CCC3(C)/C=C3\C(CCC3(O)COC)C(C)C2O)C(O)C2OC3OC12OC3(C)C1CO1 (centres undefined) , what call appears in the results of this test?
label 0

For O=c1c2ccccc2nc(-c2ccccc2Cl)n1NCC1(O)OCC(O)C(O)C1O (centres undefined) , what call appears in the results of this test?
label 0

For "COc1cccc2c1-c1c(OC)cccc1SS2" , what call appears in the results of this test?
label 0

For "Oc1nnc2c(-c3ccccc3)n[nH]c2n1" , what call appears in the results of this test?
label 0

For "O=C1OC[C@@H]2Cc3c([nH]c4ccccc34)[C@@H](c3cc(O)c(O)c(O)c3)N12" , what call appears in the results of this test?
label 0

For "N#C/C(=C/c1ccc[nH]1)P(=O)(O)O" , what call appears in the results of this test?
label 0

For "Cc1nc2[nH]ncn2c(=O)c1CCCl" , what call appears in the results of this test?
label 0

For "NC(=O)c1cn(Cc2ccccc2)c(=O)n1Cc1ccccc1" , what call appears in the results of this test?
label 0

For "COc1ccc(/C(Cl)=C(\C=O)c2ccccc2)cc1OC" , what call appears in the results of this test?
label 0
